Value source: ChEMBL document CHEMBL2057169

Consider the following compounds; for each one, report its inhibition in vivo at 100 mg/kg.
# Test system: marmosets
# Protocol details: Lipid lowering effect in marmosets assessed as reduction in plasma total cholesterol level at 100 mg/kg, po administered once daily for 7 days
# Format: functional
# Measurement conditions: Callitrichinae sp., in Callithrix jacchus, 168 h
Output spec: scalar in %, unitless text.

Which inhibition in vivo at 100 mg/kg value belongs to "COc1cccc([C@H]2O[C@H](CCC(=O)N3CCC[C@H](C(=O)O)C3)c3cccn3-c3ccc(Cl)cc32)c1OC" ?
9

Which inhibition in vivo at 100 mg/kg value belongs to "COc1cccc([C@H]2O[C@H](CCn3nnc(CC(=O)O)n3)c3cccn3-c3ccc(Cl)cc32)c1OC" ?
14

Which inhibition in vivo at 100 mg/kg value belongs to "COc1cccc([C@H]2O[C@H](CCn3ccc(CC(=O)O)n3)c3cccn3-c3ccc(Cl)cc32)c1OC" ?
27

Which inhibition in vivo at 100 mg/kg value belongs to "COc1cccc([C@H]2O[C@H](CCn3cc(CC(=O)O)nn3)c3cccn3-c3ccc(Cl)cc32)c1OC" ?
10

Which inhibition in vivo at 100 mg/kg value belongs to COc1cccc([C@H]2O[C@H](CC(=O)N3CCC(CC(=O)O)CC3)C(=O)N(CC(C)(C)COC(C)=O)c3ccc(Cl)cc32)c1OC [LAPAQUISTAT ACETATE] ?
23

Which inhibition in vivo at 100 mg/kg value belongs to "COc1cccc([C@H]2O[C@H](CC(=O)N3CCC(CC(=O)O)CC3)c3cccn3-c3ccc(Cl)cc32)c1OC" ?
4

====

Consider the following compounds; for each one, report its IC50.
# Test system: UniProtKB Q02769
# Protocol details: Inhibition of squalene synthase in rat hepatic cells
Output spec: scalar in nM, unitless text.

Which IC50 value belongs to "COc1cccc([C@H]2O[C@H](CCn3ccc(CC(=O)O)n3)c3cccn3-c3ccc(Cl)cc32)c1OC" ?
1.3

Which IC50 value belongs to "COc1cccc([C@H]2O[C@H](CCn3nnc(CC(=O)O)n3)c3cccn3-c3ccc(Cl)cc32)c1OC" ?
1.1

Which IC50 value belongs to "COc1cccc([C@H]2O[C@H](CCn3cc(C(=O)O)cn3)c3cccn3-c3ccc(Cl)cc32)c1OC" ?
2.1

Which IC50 value belongs to "COc1cccc([C@H]2O[C@H](CCn3nccc3CC(=O)O)c3cccn3-c3ccc(Cl)cc32)c1OC" ?
1.6

Which IC50 value belongs to "COc1cccc([C@H]2O[C@H](CCC(=O)N3CCC(OCCC(=O)O)CC3)c3cccn3-c3ccc(Cl)cc32)c1OC" ?
1.4

Which IC50 value belongs to "COc1cccc([C@H]2O[C@H](CCC(=O)N3CCC[C@H](C(=O)O)C3)c3cccn3-c3ccc(Cl)cc32)c1OC" ?
1.4

Which IC50 value belongs to O=C(O)CC1OC(c2cccc(Cl)c2Cl)c2cc(Cl)ccc2-n2cccc21 (stereo not drawn) ?
52

====

# Test system: Squalene synthase (Rattus norvegicus)
# Sequence (Q02769 whole entry): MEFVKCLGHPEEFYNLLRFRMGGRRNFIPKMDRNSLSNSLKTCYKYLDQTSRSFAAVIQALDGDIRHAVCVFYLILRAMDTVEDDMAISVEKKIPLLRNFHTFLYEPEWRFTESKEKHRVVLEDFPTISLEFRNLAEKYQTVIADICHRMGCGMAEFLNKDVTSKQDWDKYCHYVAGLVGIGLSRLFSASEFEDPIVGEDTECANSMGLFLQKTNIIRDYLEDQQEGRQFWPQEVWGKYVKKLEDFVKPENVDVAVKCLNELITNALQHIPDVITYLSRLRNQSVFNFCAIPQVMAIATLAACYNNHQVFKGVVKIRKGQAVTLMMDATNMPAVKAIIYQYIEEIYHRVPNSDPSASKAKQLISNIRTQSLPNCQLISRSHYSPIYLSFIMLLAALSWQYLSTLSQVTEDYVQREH
# Protocol details: Inhibition of squalene synthase in rat hepatic cells
Binning of IC50 into classes: group A (below 2 nM), group B (2 nM to below 3 nM), group C (3 nM or more)

Kindly state the category for this compound: "COc1cccc([C@H]2O[C@H](CCn3nnc(C4(C(=O)O)CC4)n3)c3cccn3-c3ccc(Cl)cc32)c1OC"
group A

Kindly state the category for this compound: COc1cccc(C2OC(CC(=O)O)c3cccn3-c3ccc(Cl)cc32)c1OC (racemic)
group C

Kindly state the category for this compound: "COc1cccc([C@H]2O[C@H](CC(=O)N3CCN(CC(=O)O)CC3)c3cccn3-c3ccc(Cl)cc32)c1OC"
group C

Kindly state the category for this compound: COc1cccc(C2OC(CC(=O)O)c3ccc(CN4CCOCC4)n3-c3ccc(Cl)cc32)c1OC (racemic)
group C

Kindly state the category for this compound: COc1cccc(C2OC(CC(=O)O)c3ccc(Cl)n3-c3ccc(Cl)cc32)c1OC (racemic)
group A

Kindly state the category for this compound: "COc1cccc([C@H]2O[C@H](CCn3nnc(C(C)(C)C(=O)O)n3)c3cccn3-c3ccc(Cl)cc32)c1OC"
group A

Kindly state the category for this compound: "COc1cccc([C@H]2O[C@H](CCn3cc(COCC(=O)O)nn3)c3cccn3-c3ccc(Cl)cc32)c1OC"
group A

Kindly state the category for this compound: "COc1cccc([C@H]2O[C@H](CC(=O)NCC(=O)O)c3cccn3-c3ccc(Cl)cc32)c1OC"
group B

Kindly state the category for this compound: "COc1cccc([C@H]2O[C@H](CCn3nnc(COC(C)(C)C(=O)O)n3)c3cccn3-c3ccc(Cl)cc32)c1OC"
group B

Kindly state the category for this compound: "COc1cccc([C@H]2O[C@H](CCC(=O)N3CC(C(=O)O)C3)c3cccn3-c3ccc(Cl)cc32)c1OC"
group B

Kindly state the category for this compound: "COc1cccc([C@H]2O[C@H](CC(=O)NCCC(=O)O)c3cccn3-c3ccc(Cl)cc32)c1OC"
group B

Kindly state the category for this compound: "COc1cccc([C@H]2O[C@H](CCn3nnc(C(=O)O)n3)c3cccn3-c3ccc(Cl)cc32)c1OC"
group A

Kindly state the category for this compound: "COc1cccc([C@H]2O[C@H](CCC(=O)N3CCC(CC(=O)O)CC3)c3cccn3-c3ccc(Cl)cc32)c1OC"
group B

Kindly state the category for this compound: "COc1cccc([C@H]2O[C@H](CCC(=O)N3CC(CC(=O)O)C3)c3cccn3-c3ccc(Cl)cc32)c1OC"
group C

Kindly state the category for this compound: "COc1cccc([C@H]2O[C@H](CCC(=O)N3CCN(CC(=O)O)C(=O)C3)c3cccn3-c3ccc(Cl)cc32)c1OC"
group B

Kindly state the category for this compound: COc1cccc([C@H]2O[C@H](CCC(=O)N3CCOC(C(=O)O)C3)c3cccn3-c3ccc(Cl)cc32)c1OC (stereo partly drawn)
group A

Kindly state the category for this compound: "COc1cccc([C@H]2O[C@H](CCn3cc(COC(C)(C)C(=O)O)nn3)c3cccn3-c3ccc(Cl)cc32)c1OC"
group A

Kindly state the category for this compound: O=C(O)CC1OC(c2cccc3c2OCCO3)c2cc(Cl)ccc2-n2cccc21 (stereo not drawn)
group C
